Ref: PubChem BioAssay AID1918952

- Test system: LG0703-F948-PDC complex spheroid viability
- PROCEDURE_TEXT: Anticancer human tumor LG0703-F948-PDC patient-derived lung adenocarcinoma cell line growth inhibition
- MEASUREMENT_CONDITIONS: second compound 0.1 µM; first compound 0.00316 µM; hits give low values
REPORTED_PROPERTY: viability, T/C (%)
The figure you give is taken to be in %; do not add the unit.

Worked cases, answers included:
MOLECULE: CC1COCCN1c1cc(-c2ccnn2C)c2ccnc(-c3ccn[nH]3)c2n1 (centres undefined) + NC1CC1c1ccc(-c2cccc(O)c2)cc1
SYSTEM_UNDER_TEST: LG0703-F948-PDC complex spheroid viability
UNIT_ANNOTATION: %
READING: 80.4

MOLECULE: Nc1ncn(C2CC(O)C(CO)O2)c(=O)n1 (centres undefined) + NC1CC1c1ccc(-c2cccc(O)c2)cc1
SYSTEM_UNDER_TEST: LG0703-F948-PDC complex spheroid viability
UNIT_ANNOTATION: %
READING: 106

MOLECULE: CC(C)CC(NC(=O)C(Cc1ccccc1)NC(=O)c1cnccn1)B(O)O (centres undefined) + NC1CCC(NC2CC2c2ccccc2)CC1
SYSTEM_UNDER_TEST: LG0703-F948-PDC complex spheroid viability
UNIT_ANNOTATION: %
READING: 0.43

Here is the next item to consider.
Which viability, T/C reading was recorded for the molecule CC(C)CC(NC(=O)C(Cc1ccccc1)NC(=O)c1cnccn1)B(O)O (centres undefined) + NC1CC1c1ccc(-c2cccc(O)c2)cc1 ?
0.04

----------
- Tested on: LG0703-F948-PDC complex spheroid viability
- PROCEDURE_TEXT: Anticancer human tumor LG0703-F948-PDC cell line growth inhibition;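 also: spheroids exposed to agents for seven days before readout; 100% = DMSO vehicle control wells as normalization base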
- MEASUREMENT_CONDITIONS: second compound 1 µM; first compound 0.3 µM; hits give low values
REPORTED_PROPERTY: viability, T/C (%)
The figure you give is taken to be in %; do not add the unit.

COMPOUND: Nc1ccn(C2OC(CO)C(O)C2(F)F)c(=O)n1 (centres undefined) + NC1CC1c1ccc(-c2cccc(O)c2)cc1
viability, T/C, %: 40.3

COMPOUND: Nc1ncn(C2CC(O)C(CO)S2)c(=O)n1 (centres undefined) + NC1CC1c1ccc(-c2cccc(O)c2)cc1
viability, T/C, %: 84.8

COMPOUND: Nc1ccccc1NC(=O)c1ccc(CNC(=O)OCc2cccnc2)cc1 + NC1CC1c1ccc(-c2cccc(O)c2)cc1
viability, T/C, %: 8.53

Which viability, T/C reading was recorded for the compound CCN(c1cc(-c2ccc(CN3CCOCC3)cc2)cc(C(=O)NCc2c(C)cc(C)[nH]c2=O)c1C)C1CCOCC1 + NC1CCC(NC2CC2c2ccccc2)CC1 ?
133

Could you do the same for CCc1c2c(nc3ccc(O)cc13)-c1cc3c(c(=O)n1C2)COC(=O)[C@]3(O)CC + NC1CC1c1ccc(-c2cccc(O)c2)cc1 , please?
2.05

----------
- System: LG0703-F948-PDC complex spheroid viability
- PROCEDURE_TEXT: Anticancer human tumor LG0703-F948-PDC cell line growth inhibition;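 also: spheroids exposed to agents for seven days before readout; 100% = DMSO vehicle control wells as normalization base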
- MEASUREMENT_CONDITIONS: second compound 1 µM; first compound 0.03 µM; hits give low values
REPORTED_PROPERTY: viability, T/C (%)
The figure you give is taken to be in %; do not add the unit.

Worked cases, answers included:
COMPOUND: CCc1c2c(nc3ccc(O)cc13)-c1cc3c(c(=O)n1C2)COC(=O)[C@]3(O)CC + NC1CCC(NC2CC2c2ccccc2)CC1
READING: 15.9
//
COMPOUND: CCN(c1cc(-c2ccc(CN3CCOCC3)cc2)cc(C(=O)NCc2c(C)cc(C)[nH]c2=O)c1C)C1CCOCC1 + NC1CCC(NC2CC2c2ccccc2)CC1
READING: 116
//
COMPOUND: Nc1ccn(C2OC(CO)C(O)C2(F)F)c(=O)n1 (configuration not stated) + NC1CCC(NC2CC2c2ccccc2)CC1
READING: 46.4

Param readout= viability, T/C; system= LG0703-F948-PDC complex spheroid viability; entry= CCN(c1cc(-c2ccc(CN3CCOCC3)cc2)cc(C(=O)NCc2c(C)cc(C)[nH]c2=O)c1C)C1CCOCC1 + NC1CC1c1ccc(-c2cccc(O)c2)cc1 ; returns value.
98.8

Could you do the same for Nc1ccccc1NC(=O)c1ccc(CNC(=O)OCc2cccnc2)cc1 + NC1CC1c1ccc(-c2cccc(O)c2)cc1 , please?
76.7

Could you do the same for Nc1ccn(C2OC(CO)C(O)C2(F)F)c(=O)n1 (configuration not stated) + NC1CC1c1ccc(-c2cccc(O)c2)cc1 , please?
60.1

Could you do the same for O=C(C=Cc1cccc(S(=O)(=O)Nc2ccccc2)c1)NO + NC1CCC(NC2CC2c2ccccc2)CC1 , please?
89.5

----------
- Tested on: LG0703-F948-PDC complex spheroid viability
- PROCEDURE_TEXT: Anticancer human tumor LG0703-F948-PDC cell line growth inhibition;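 also: spheroids exposed to agents for seven days before readout; 100% = DMSO vehicle control wells as normalization base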
- MEASUREMENT_CONDITIONS: second compound 1 µM; first compound 0.3 µM; hits give low values
REPORTED_PROPERTY: viability, T/C

Worked cases, answers included:
COMPOUND: Nc1ccn(C2OC(CO)C(O)C2(F)F)c(=O)n1 (centres undefined) + NC1CCC(NC2CC2c2ccccc2)CC1
REPORTED_PROPERTY: viability, T/C
READING: 37.2%

COMPOUND: O=C(C=Cc1cccc(S(=O)(=O)Nc2ccccc2)c1)NO + NC1CCC(NC2CC2c2ccccc2)CC1
REPORTED_PROPERTY: viability, T/C
READING: 9.18%

COMPOUND: CCc1c2c(nc3ccc(O)cc13)-c1cc3c(c(=O)n1C2)COC(=O)[C@]3(O)CC + NC1CCC(NC2CC2c2ccccc2)CC1
REPORTED_PROPERTY: viability, T/C
READING: 3.95%

Here is the next item to consider.
Which viability, T/C reading was recorded for the compound Nc1ccccc1NC(=O)c1ccc(CNC(=O)OCc2cccnc2)cc1 + NC1CCC(NC2CC2c2ccccc2)CC1 ?
17%

----------
- System: LG0703-F948-PDC complex spheroid viability
- PROCEDURE_TEXT: Anticancer human tumor LG0703-F948-PDC cell line growth inhibition;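 also: spheroids exposed to agents for seven days before readout; 100% = DMSO vehicle control wells as normalization base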
- MEASUREMENT_CONDITIONS: second compound 1 µM; first compound 0.03 µM; hits give low values
REPORTED_PROPERTY: viability, T/C (%)
The figure you give is taken to be in %; do not add the unit.

Worked cases, answers included:
MOLECULE: Nc1ncn(C2CC(O)C(CO)S2)c(=O)n1 (stereo not given) + NC1CC1c1ccc(-c2cccc(O)c2)cc1
UNIT_ANNOTATION: %
viability, T/C: 108

MOLECULE: Nc1ccccc1NC(=O)c1ccc(CNC(=O)OCc2cccnc2)cc1 + NC1CCC(NC2CC2c2ccccc2)CC1
UNIT_ANNOTATION: %
viability, T/C: 94.8

Which viability, T/C reading was recorded for the molecule COc1cc(C2c3cc4c(cc3C(OC3OC5COC(C)OC5C(O)C3O)C3COC(=O)C23)OCO4)cc(OC)c1O (stereo not given) + NC1CCC(NC2CC2c2ccccc2)CC1 ?
127

Could you do the same for NS(=O)(=O)OCC1CC(n2ccc3c(NC4CCc5ccccc54)ncnc32)CC1O (stereo not given) + NC1CCC(NC2CC2c2ccccc2)CC1 , please?
144

Could you do the same for NS(=O)(=O)OCC1CC(n2ccc3c(NC4CCc5ccccc54)ncnc32)CC1O (stereo not given) + NC1CC1c1ccc(-c2cccc(O)c2)cc1 , please?
117
